- System: SK-MEL-2 melanoma
- test.protocol: NCI tumour cell line growth inhibition, 48 h
Recorded measurements of TGI, one per entry
reported.endpoint: TGI

| compound.structure | reported.endpoint | reported |
| --- | --- | --- |
| Cc1csc(-c2nnc(Nc3ccc(Oc4ncccc4-c4ccnc(N)n4)cc3)c3ccccc23)c1 | TGI | > 26.9 µM |
| N[C@@H](CCC(=O)NCP(=O)(O)O)C(=O)O | TGI | > 100 µM |
| NC(=O)C(=Cn1c(=S)[nH]c2ccc([N+](=O)[O-])cc21)C(N)=O | TGI | > 100 µM |
| Nc1nc(-c2ccccc2)nc2oc(-c3cccs3)nc12 | TGI | > 100 µM |

---

- Tested on: HCT-116 colon
- test.protocol: NCI tumour cell line growth inhibition, 48 h
Recorded measurements of TGI, one per entry

| compound | TGI |
| --- | --- |
| Cc1ccccc1OC(C)C(=O)NN1C(=O)CSC1c1ccccc1 (stereo not drawn) | > 100 µM |
| NC(=O)C(=Cn1c(=S)[nH]c2ccc([N+](=O)[O-])cc21)C(N)=O | > 100 µM |
| COc1cccc(C2SC(N)=Nc3c2c(C)nn3C(=O)c2ccccc2O)c1 (stereo not drawn) | > 10 µM |
| O=C1CN(c2cccc(Cl)c2)C(=O)CN1CCN1CC(=O)N(c2cccc(Cl)c2)CC1=O | > 100 µM |
| O=C(N/N=C/c1ccc(Cl)cc1)c1c(Cl)c(Cl)c(Cl)c(Cl)c1-c1nc2ccccc2[nH]1 | > 100 µM |
| O=C1CCC2(c3ccc(Cl)cc3)Nc3ccncc3N12 (stereo not drawn) | > 10 µM |
| CCN1C(=O)N(c2ccccc2)C2NC(=S)N(/N=C/C=C/c3ccccc3OC)C21 (stereo not drawn) | > 32.7 µM |
| CC(=O)N(C(=O)CC(=O)N1N=C(c2ccccc2)C(N=Nc2ccccc2[N+](=O)[O-])C1=O)c1ccc(Cl)cc1 (stereo not drawn) | > 10 µM |

---

- Tested on: MCF7 breast
- test.protocol: NCI tumour cell line growth inhibition, 48 h
reported.endpoint: TGI

| compound | reported.endpoint | reported |
| --- | --- | --- |
| COc1ccc(/C=N/NC(=O)c2cccc3cc[nH]c23)cc1O | TGI | > 100 µM |
| C#CCn1c(=O)c2ccccc2n(CC#C)c1=O | TGI | > 10 µM |
| O=C1CCCCC1CN1CCCCC1 (stereo not drawn) | TGI | > 100 µM |

---

- System: NCI-H226 lung
- test.protocol: NCI tumour cell line growth inhibition, 48 h
Recorded measurements of GI50, one per entry

| molecule | GI50 |
| --- | --- |
| Nc1c(C(=O)Nc2cccc(C(F)(F)F)c2)sc2nc3c(cc12)CCCCC3 | 1570 nM |
| CN(C)c1cc(NN=C(c2ccc(O)cc2)c2ccc(O)cc2)c([N+](=O)[O-])cc1[N+](=O)[O-] | 13100 nM |
| Nc1n[nH]c2cc(F)c([C@@H]3Nc4ccc5[nH]ncc5c4[C@H]4C5CCC(C5)[C@@H]34)cc12 (stereo partly drawn) | 192 nM |
| CCCCCCCCCCn1cc[n+](C)c1 | 2430 nM |
| CCN1C(=O)N(c2ccccc2)C2NC(=S)N(/N=C/C=C/c3ccccc3OC)C21 (stereo not drawn) | 300 nM |
| CN1CC[C@@H](NC(=O)Nc2ccc(C#N)cc2)C[C@@H]1c1nc2ccccc2[nH]1 | > 100000 nM |
| COc1ccc2nc3cc(Cl)ccc3c(NCCNCC(C)O)c2c1 (stereo not drawn) | 2300 nM |
| COc1ccc(CN2C(=O)/C(=C\c3cc(OC)c(OC)c(OC)c3)c3ccccc32)cc1 | 2960 nM |

---

Recorded measurements of TGI, one per entry
- System: HCC-2998 colon
- test.protocol: NCI tumour cell line growth inhibition, 48 h

| molecule | TGI |
| --- | --- |
| Cn1c(=O)c2c(nc3n2CC(C(=O)O)N3)n(C)c1=O (stereo not drawn) | > 100 µM |
| Cc1oc2c(cc(O)c3cc(O)ccc32)c2cccc1-2 | > 100 µM |
| O=C1NC(=NC(CO)Cc2ccccc2)S/C1=C\c1ccc2ncccc2c1 (stereo not drawn) | > 25 µM |

---

Recorded measurements of TGI, one per entry
- Tested on: SR leukemia
- test.protocol: NCI tumour cell line growth inhibition, 48 h

| compound | TGI |
| --- | --- |
| Nc1n[nH]c2cc(F)c([C@@H]3Nc4ccc5[nH]ncc5c4[C@H]4C5CCC(C5)[C@@H]34)cc12 (stereo partly drawn) | > 50 µM |
| CC(C)c1cc2c(cc1S(=O)(=O)O)[C@@]1(C)CCC[C@@](C)(C(=O)O)C1CC2 (stereo partly drawn) | > 100 µM |
| Cc1cccc(C)c1NC(=O)CCCC(=O)C1/C(=N/NC(=O)CC#N)CCC/C1=N\NC(=O)CC#N (stereo not drawn) | > 100 µM |
| C[C@]12CCC3c4ccc(O)cc4CCC3C1CC[C@@]2(O)CNC(=O)/C=C/c1ccc(O)c(O)c1 (stereo partly drawn) | 26.7 µM |
| Oc1ccc(Cc2cc(Cc3ccc(O)cc3)cc(Cc3ccc(O)cc3)c2)cc1 | > 50 µM |
| O=C(O)c1nc2nc(Cl)c(Cl)nc2[nH]1 | > 100 µM |
| COc1cc(C2CC(C)(O)Oc3cc4c(cc32)OCO4)cc(OC)c1OC (stereo not drawn) | > 100 µM |
| COCCOc1ccc(-c2nc3ccc(-c4nc5ccc(N6CCN(C)CC6)cc5[nH]4)cc3[nH]2)cc1 | 21.9 µM |
| O=C(CCCSc1nc(-c2ccccc2)cc(-c2ccccc2)n1)NO | 20.5 µM |
| O=C(/C=C/c1ccc([N+](=O)[O-])cc1)c1ccc(NCc2nc3ccccc3[nH]2)cc1 | 8.15 µM |
| c1ccc2c3[nH]c(c2c1)=Nc1ccc(cc1)-c1nc2cc(ccc2o1)N=c1[nH]c(c2ccccc12)=Nc1ccc2nc(oc2c1)-c1ccc(cc1)N=3 | > 100 µM |
| CC(=O)Nn1c(=S)[nH]c2ccccc21 | > 100 µM |
| CCCCCC1=CC(=O)C1(Cl)Cl | 19.4 µM |

---

- System: RXF 393 renal
- test.protocol: NCI tumour cell line growth inhibition, 48 h

| compound | TGI |
| --- | --- |
| C/C(CCn1[nH]c(=O)ccc1=O)=N\NC(=O)C(=O)NN | > 100 µM |
| COc1ccc(CCN=C2NC(=O)/C(=C/c3ccc4ncccc4c3)S2)cc1 | > 25 µM |
| CCC(=O)NCC1CCCN2CCCCC12 (stereo unspecified) | > 100 µM |
| COC(=O)C(CCCN1C(=O)c2ccccc2C1=O)C(=O)OC | > 100 µM |
| COc1ccc(-c2[nH]c3c4c(nc5c(c24)C(=O)CC(C)(C)C5)CC(C)(C)C3)cc1 | > 100 µM |
| CC(=O)c1c2c(c3ccccc3c1O)O[C@@H]1OCC[C@H]21 | > 100 µM |
| N#Cc1c[nH]n2c(N=Nc3ccc(Cl)cc3)c(O)nc12 | > 100 µM |
| CC(C)c1cc2c(cc1S(=O)(=O)O)[C@@]1(C)CCC[C@@](C)(C(=O)O)C1CC2 (stereo partly specified) | > 100 µM |
| Cc1oc2c(cc(O)c3cc(O)ccc32)c2cccc1-2 | > 100 µM |
| C[C@]12CC[C@H](O)CC1=CC[C@@H]1[C@@H]2CC[C@]2(C)C(=N/N)/C(=N\O)C[C@@H]12 | > 100 µM |
| C/C(=C\CBr)CCC(Br)C(C)(C)Br (stereo unspecified) | > 100 µM |
| COc1ccc(/C=N/NC(=O)c2cccc3cc[nH]c23)cc1O | > 100 µM |
| Nc1nc(SCCC/C=C/I)nc2c1ncn2C1OC(COP(=O)(O)O)C(O)C1O (stereo unspecified) | > 100 µM |
| Cc1cc(Nc2ccc(S(=O)(=O)O)c3cc(S(=O)(=O)O)cc(S(=O)(=O)O)c23)c2ccccc2n1 | > 100 µM |
| COC(=O)C1CC(C=[N+](C)C)=C(SC)N1C(=O)OCc1ccccc1 (stereo unspecified) | > 100 µM |
| NC(=O)C(=Cn1c(=S)[nH]c2ccc([N+](=O)[O-])cc21)C(N)=O | > 100 µM |
| COc1cccc(-c2nc(-c3ccc(NC(=O)OC(C)C)cc3)[nH]c2-c2ccnc(Br)c2)c1 | 0.87 µM |
| Cc1csc(-c2nnc(Nc3ccc(Oc4ncccc4-c4ccnc(N)n4)cc3)c3ccccc23)c1 | > 100 µM |
| O=C(/C=C/c1ccc(O)cc1)c1ccc(O)cc1 | 50.1 µM |
| c1ccc2c(c1)Cn1c-2nc2ccccc21 | > 100 µM |
| Cc1ccnc(NS(=O)(=O)c2ccc(N=[N+]=[N-])cc2)n1 | > 100 µM |
| Nc1ccc(C2=NNC(=O)Cc3cc4c(cc32)OCCO4)cc1Cl | 19.3 µM |
| O=C1C=CC(=O)c2nc3c(cc21)CCC3 | 34.2 µM |
| CC1=Nc2ccccc2OC(C)=C1N=Nc1ccc2nc(C)[nH]c2c1 | > 100 µM |
| O=C(O)c1ccc2c(c1C(=O)O)C(=O)OC2(c1ccc(O)cc1)c1ccc(O)cc1 | > 100 µM |
| Cc1ccc(/C=C/C(=O)c2cccc3ccccc23)cc1 | 26.2 µM |
| Cc1ccc(-c2csc(=Nc3ccccc3)n2NC(=O)c2ccncc2)cc1 | > 100 µM |
| CCOC(=O)Nc1sc2c(c1C#N)CCCC2 | > 100 µM |
| Nc1c(C(=O)Nc2cccc(C(F)(F)F)c2)sc2nc3c(cc12)CCCCC3 | 4.86 µM |
| COc1nncc2[nH]c(-c3ccccc3)cc12 | > 100 µM |
| CN(C)CC1CC/C(=C\c2ccc(O)cc2)C1=O (stereo unspecified) | 4.8 µM |
